- assay explanation: Pharmacokinetics in mice
- particulars: mouse, in vivo, oral 25 mg/kg, approximate values, read-out: Oral Cmax
attribute measured: Cmax (ng/mL)

COC1=C(C=C(C)C(=O)N(C)C)C(=O)c2ccccc2C1=O	200

====

- System: pGF-NFκB in Panc1 cells
- assay explanation: NFκB luciferase reporter assay in Panc1 pancreatic cancer cells
- Assay type: cell-based
- particulars: Homo sapiens, PANC-1; luciferase activity 40 hrs after treatment; stable pGF-NFκB; read-out: Panel IC50
log10(IC50) overview
attribute measured: log10(IC50) (log10 of the value in µM)

CCCCCCCCCC(=CC1=C(C)C(=O)C(OC)=C(OC)C1=O)C(=O)NOC [Example 6a]	0.95
CCCCCCCCC/C(=C\C1=C(C)C(=O)C(OC)=C(OC)C1=O)C(=O)O [Example E3330, reference compound]	1.72
CCCCCCCCCC(=CC1=C(C)C(=O)C(OC)=C(OC)C1=O)C(=O)N(C)OC [Example 6b]	1.00
CCCC(=CC1=C(OC)C(=O)c2ccccc2C1=O)C(=O)N(CC)CC [Example 5c]	0.90
CCCC(=CC1=C(OC)C(=O)c2ccccc2C1=O)C(=O)NOC [Example 5d]	0.85
COC1=C(C=C(C)C(=O)N(C)C)C(=O)c2ccccc2C1=O [Example 5a]	0.70

====

- assay explanation: Pharmacokinetics in mice
- particulars: mouse, in vivo, intravenous 5 mg/kg, approximate values, read-out: IV Cmax
attribute measured: Cmax (ng/mL)

COC1=C(C=C(C)C(=O)N(C)C)C(=O)c2ccccc2C1=O	200

Values compiled from patent US10154973B2.
